# Tested on: Botrytis cinerea
# PROTOCOL DETAILS: Synergistic Growth Inhibition Assay (MIC and FIC index, 96-well, resazurin)
# Assay type: cell-based
# ASSAY SETUP: Botrytis cinerea, 48 h, Table 56; Compound B alone; 48 hours incubation; read-out: MIC (B)
The following molecules are listed with their measured MIC values.

MOLECULE	EXPERIMENTAL TARGET	UNIT SYMBOL	MIC
CCCCCCC(C)C(=O)O (stereo not shown) [2-Methyloctanoic acid]	Botrytis cinerea	µg/mL	312
CCCCCCCCC(C)C(=O)O (stereo not shown) [2-Methyldecanoic acid]	Botrytis cinerea	µg/mL	125
CC(O)CC(=O)O (stereo not shown) [3-Hydroxybutyric acid, 3-hydroxybutyric acid]	Botrytis cinerea	µg/mL	10000
CCCC(O)CC(=O)O (stereo not shown) [3-Hydroxyhexanoic acid, 3-hydroxyhexanoic acid]	Botrytis cinerea	µg/mL	5000
C/C=C/C=C/C(=O)O [(2E,4E)-2,4-hexadienoic acid]	Botrytis cinerea	µg/mL	125
CCCCCCCC/C=C/C(=O)O [Trans-2-undecenoic acid]	Botrytis cinerea	µg/mL	39.1
CCC(O)C(=O)O (stereo not shown) [2-Hydroxybutyric acid]	Botrytis cinerea	µg/mL	2500
CCCCCCC/C=C/C(=O)O [Trans-2-decenoic acid, trans-2-decenoic acid]	Botrytis cinerea	µg/mL	78.1
CCCCCCCC/C=C\CCCCCCCC(=O)O [Oleic acid]	Botrytis cinerea	µg/mL	5000
CCCCCC(O)CC(=O)O (stereo not shown) [3-Hydroxyoctanoic acid]	Botrytis cinerea	µg/mL	625
C=CCCCCCCCC(=O)O [9-Decenoic acid, 9-decenoic acid]	Botrytis cinerea	µg/mL	78.1
CCCCCCCC(O)CC(=O)O (stereo not shown) [3-Hydroxydecanoic acid, 3-hydroxydecanoic acid]	Botrytis cinerea	µg/mL	125
CCCCCC/C=C/C(=O)O [Trans-2-nonenoic acid]	Botrytis cinerea	µg/mL	156
CCCCCCC=CCC(=O)O [3-Decenoic acid, 3-decenoic acid]	Botrytis cinerea	µg/mL	78.1
CCC/C=C/C(=O)O [Trans-2-hexenoic acid, trans-2-hexenoic acid]	Botrytis cinerea	µg/mL	312
CCCCCCCCCCCC(=O)O [Dodecanoic acid, dodecanoic acid]	Botrytis cinerea	µg/mL	50

----------
The following molecules are listed with their measured MIC values.
# System: Fusarium oxysporum
# PROTOCOL DETAILS: Synergistic Growth Inhibition Assay (MIC and FIC index, 96-well, resazurin)
# Format: cell-based
# ASSAY SETUP: Fusarium oxysporum, 48 h, Table 28; Compound B alone; 48 hours incubation; read-out: MIC (B)
MEASURED ATTRIBUTE: MIC (µg/mL)

MOLECULE	RECORDED NUMBER
CCCC=CCC(=O)O [3-Heptenoic acid]	156
CCCCCCC=CCC(=O)O [3-Decenoic acid, 3-decenoic acid]	78.1
C=CCCCCCCCC(=O)O [9-Decenoic acid, 9-decenoic acid]	312
CC/C=C/CC(=O)O [Trans-3-hexenoic acid, trans-3-hexenoic acid]	312
CCCCCC/C=C/C(=O)O [Trans-2-nonenoic acid]	156

----------
# Tested on: Sclerotinia sclerotiorum
# PROTOCOL DETAILS: Synergistic Growth Inhibition Assay (MIC and FIC index, 96-well, resazurin)
# Type: cell-based
# ASSAY SETUP: Sclerotinia sclerotiorum, […], Table 39; Compound B alone; 7 days incubation; read-out: MIC (B)
MEASURED ATTRIBUTE: MIC (µg/mL)

MOLECULE	UNIT SYMBOL	RECORDED NUMBER
CCCCCC/C=C/C(=O)O [Trans-2-nonenoic acid]	µg/mL	19.5
C=CCCCCCCCC(=O)O	µg/mL	39.1
CCCCCCC/C=C/C(=O)O [Trans-2-decenoic acid, trans-2-decenoic acid]	µg/mL	19.5
CCCCCCCC/C=C/C(=O)O [Trans-2-undecenoic acid]	µg/mL	39.1
CCCC=CCC(=O)O	µg/mL	78.1
